Reference source for all entries: patent US20240008524A1

Listing of recorded solubility by entry.
PROCEDURE_SUMMARY: Water solubility of flavoring agents and their flavor glucosides
TEST_CONTEXT: water
OBSERVATION_TYPE: solubility

molecule="C=CC(O)CCCCC (stereo not drawn) [1-Octen-3-ol]" observation_type=solubility observed_value="1840 µg/mL"
molecule="CC1=CCC(C(C)(C)O)CC1 (stereo not drawn) [Alpha-Terpineol]" observation_type=solubility observed_value="710 µg/mL"
molecule="CC(C)=CCC/C(C)=C/CO [Geraniol]" observation_type=solubility observed_value="100 µg/mL"
